Where these numbers come from: patent US20070015774A1

target: GST-p53 DNA binding domain (aa 92-aa 312) (Homo sapiens, UniProt P04637); test: Scintillation Proximity Assay (SPA), displacement of 3H STANDARD COMPOUND; details: 1 h, 2 ug/mL of drug; letter rating; number in brackets = number of determinations averaged; read-out: SPA ASSAY % Residual T @ 2 ug/mL of drug (Average of)
Sequence (P04637 92-312): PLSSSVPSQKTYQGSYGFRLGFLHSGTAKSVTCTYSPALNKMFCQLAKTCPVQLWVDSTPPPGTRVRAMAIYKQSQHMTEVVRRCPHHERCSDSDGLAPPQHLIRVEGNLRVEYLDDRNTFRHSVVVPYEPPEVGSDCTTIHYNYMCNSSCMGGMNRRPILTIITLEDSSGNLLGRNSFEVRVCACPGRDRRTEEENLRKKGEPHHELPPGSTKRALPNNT
remaining activity at 2 µg/mL for assorted molecules
quantity_kind: remaining activity at 2 µg/mL

1) CN(C)CCCNc1nc(CN(C)Cc2cccc(F)c2)nc2ccccc12	≥ 80%
2) CN(C)CCCNc1nc(CN(C)C2CCCC(C(F)(F)F)C2)nc2ccccc12 (stereo not shown)	40 to 80%
3) CC(C)CCN(C)Cc1nc(NCCCN(C)C)c2ccccc2n1	20 to 40%
4) Cc1cccc(C)c1CN(C)Cc1nc(NCCCN(C)C)c2ccccc2n1	≥ 80%
5) CN(C)CCCNc1nc(CN(C)Cc2cccs2)nc2ccccc12	≥ 80%
6) CC(CCN(C)Cc1nc(NCCCN(C)C)c2ccccc2n1)c1ccccc1 (stereo not shown)	≥ 80%
7) CN(C)CCCNc1nc(CN(C)Cc2ccccc2C#N)nc2ccccc12	40 to 80%
8) CCC(C)(C)C1CCC(N(C)Cc2nc(NCCCN(C)C)c3ccccc3n2)CC1 (stereo not shown)	0 to 20%
9) CN(C)CCCNc1nc(CN(C)Cc2cccc(C#N)c2)nc2ccccc12	40 to 80%
10) CN(C)CCCNc1nc(CN(C)C2CCN(C(=O)c3ccccc3)CC2)nc2ccccc12	20 to 40%
11) CN(C)CCCNc1nc(CN(C)C2CCC(C(F)(F)F)CC2)nc2ccccc12 (stereo not shown)	40 to 80%
12) CN(C)CCCNc1nc(CN(C)Cc2ccc(Oc3ccccc3)cc2)nc2ccccc12	40 to 80%
13) CCOC(=O)C1CC1CN(C)Cc1nc(NCCCN(C)C)c2ccccc2n1 (stereo not shown)	40 to 80%
14) CN(C)CCCNc1nc(CN(C)Cc2ccc(Cl)cc2)nc2ccccc12	40 to 80%
15) CN(C)CCCNc1nc(CN(C)Cc2cccc(C(F)(F)F)c2)nc2ccccc12	40 to 80%
16) CN(C)CCCNc1nc(CN(C)Cc2ccco2)nc2ccccc12	40 to 80%
